biological target: native mouse MET on living cells (mouse, UniProt P16056 25-1379); assay: cell-based or functional assay
MEASUREMENT_KIND: scatter score 0-4, MLP29, 9.000 nM (score)
Reply numerically in score, unit not repeated.

Query: Need scatter score 0-4, MLP29, 9.000 nM, item 71G3 chimeric llama-human IgG1 mAb (antibody, V domains shown, llama VH on human IgG1 CH1-CH2-CH3, llama VL on human lambda CL) VH: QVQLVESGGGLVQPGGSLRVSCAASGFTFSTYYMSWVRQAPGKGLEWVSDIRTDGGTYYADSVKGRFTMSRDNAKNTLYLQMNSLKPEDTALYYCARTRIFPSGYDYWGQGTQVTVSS VL: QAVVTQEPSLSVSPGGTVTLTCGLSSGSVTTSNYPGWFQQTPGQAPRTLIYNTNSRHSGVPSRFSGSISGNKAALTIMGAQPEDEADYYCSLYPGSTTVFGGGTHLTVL
Result: 4
